Cited source: ChEMBL document CHEMBL4373703

target: Tyrosine-protein kinase BTK (Homo sapiens, UniProt Q06187, C481S); test: Inhibition of BTK Cys481S mutant (unknown origin)
Sequence (Q06187 2-659 C481S limits assumed): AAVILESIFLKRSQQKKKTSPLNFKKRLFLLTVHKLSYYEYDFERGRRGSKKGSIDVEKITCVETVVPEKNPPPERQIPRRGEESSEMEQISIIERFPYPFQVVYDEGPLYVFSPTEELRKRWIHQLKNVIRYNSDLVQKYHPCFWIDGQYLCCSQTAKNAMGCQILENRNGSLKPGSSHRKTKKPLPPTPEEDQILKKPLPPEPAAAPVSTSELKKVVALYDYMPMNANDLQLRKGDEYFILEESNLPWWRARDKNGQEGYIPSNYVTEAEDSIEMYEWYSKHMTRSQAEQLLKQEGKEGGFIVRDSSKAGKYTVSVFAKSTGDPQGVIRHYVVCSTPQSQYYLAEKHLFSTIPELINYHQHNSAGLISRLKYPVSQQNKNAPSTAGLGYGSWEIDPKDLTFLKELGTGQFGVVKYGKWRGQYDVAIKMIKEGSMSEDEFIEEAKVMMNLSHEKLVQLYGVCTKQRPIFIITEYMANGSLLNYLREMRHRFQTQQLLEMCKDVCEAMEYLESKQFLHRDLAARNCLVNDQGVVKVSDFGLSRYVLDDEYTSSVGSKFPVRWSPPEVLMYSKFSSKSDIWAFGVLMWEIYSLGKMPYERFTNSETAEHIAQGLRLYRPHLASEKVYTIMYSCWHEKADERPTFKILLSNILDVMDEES
reportedProperty: IC50

Prompt line: # input compound: CC(=O)N1CCC(CNc2ncnc(N)c2-c2ccc(Oc3ccccc3)cc2)CC1 ; wanted: its IC50
Response line: 8.6 to 8.7 µM

* * *

Please provide measured IC50 for the entries that follow.
biological target: Epidermal growth factor receptor (Homo sapiens, UniProt P00533); experiment: Inhibition of N-terminal GST-tagged human EGFR (696 to end aminoacids) expressed in baculovirus infected Sf21 cells
Sequence (P00533 whole entry): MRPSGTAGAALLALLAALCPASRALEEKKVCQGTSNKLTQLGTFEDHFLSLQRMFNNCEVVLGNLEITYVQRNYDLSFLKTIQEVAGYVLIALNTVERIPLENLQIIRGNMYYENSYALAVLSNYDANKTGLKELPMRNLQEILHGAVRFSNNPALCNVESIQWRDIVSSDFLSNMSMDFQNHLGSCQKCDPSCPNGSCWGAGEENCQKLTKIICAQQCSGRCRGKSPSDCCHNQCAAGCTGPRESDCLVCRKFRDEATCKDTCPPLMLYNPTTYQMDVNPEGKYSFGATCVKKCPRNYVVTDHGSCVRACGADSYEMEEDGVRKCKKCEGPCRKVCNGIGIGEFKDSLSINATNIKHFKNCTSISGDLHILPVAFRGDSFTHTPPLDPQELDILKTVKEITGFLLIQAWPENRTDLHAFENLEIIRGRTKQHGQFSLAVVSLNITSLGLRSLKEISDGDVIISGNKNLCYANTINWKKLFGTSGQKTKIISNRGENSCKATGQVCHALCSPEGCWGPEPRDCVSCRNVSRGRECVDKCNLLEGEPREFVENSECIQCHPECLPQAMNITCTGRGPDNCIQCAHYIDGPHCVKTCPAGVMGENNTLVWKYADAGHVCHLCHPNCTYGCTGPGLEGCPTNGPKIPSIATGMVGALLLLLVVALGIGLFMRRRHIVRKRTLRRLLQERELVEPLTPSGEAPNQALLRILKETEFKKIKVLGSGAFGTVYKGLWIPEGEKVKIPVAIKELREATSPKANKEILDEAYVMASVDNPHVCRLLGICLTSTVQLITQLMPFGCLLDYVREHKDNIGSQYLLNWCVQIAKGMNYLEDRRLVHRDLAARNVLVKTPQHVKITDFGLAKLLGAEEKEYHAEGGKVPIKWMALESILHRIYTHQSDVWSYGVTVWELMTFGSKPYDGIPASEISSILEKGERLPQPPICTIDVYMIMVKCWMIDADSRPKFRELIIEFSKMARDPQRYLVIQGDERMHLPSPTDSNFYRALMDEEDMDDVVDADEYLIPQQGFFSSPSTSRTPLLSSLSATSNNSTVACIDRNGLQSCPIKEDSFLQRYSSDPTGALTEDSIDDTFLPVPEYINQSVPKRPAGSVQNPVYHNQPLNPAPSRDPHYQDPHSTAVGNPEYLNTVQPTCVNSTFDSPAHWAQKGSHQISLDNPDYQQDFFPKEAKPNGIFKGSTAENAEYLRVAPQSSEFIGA
One number for each entry, in nM.

Worked set:
smilesNotation: C=CC(=O)Nc1cccc(Oc2ncnc(N)c2-c2ccc(Oc3ccccc3)cc2)c1
testedTarget: Epidermal growth factor receptor (Homo sapiens, UniProt P00533)
reportedProperty: IC50
dataValue: 78

smilesNotation: C=CC(=O)Nc1cccc(Nc2ncnc(N)c2-c2ccc(Oc3ccccc3)cc2)c1
testedTarget: Epidermal growth factor receptor (Homo sapiens, UniProt P00533)
reportedProperty: IC50
dataValue: 4

From here, focus on the item given below.
Prompt line: IC50 lookup needed for C=CC(=O)Nc1cccc(-c2c(N)ncnc2Nc2ccc(Oc3ccccc3)cc2)c1 , thanks.
Response line: 1

* * *

assay: Tmax in NMRI mouse at 3 mg/kg, po administered as suspension; type: ADME, organism-based; details: in vivo
reportedProperty: Tmax

Prompt line: Value lookup for Tmax; key = C=CC(=O)N1CCC(CNc2ncnc(N)c2-c2ccc(Oc3ccccc3)cc2)CC1
Response line: 15 to 60 min

* * *

Would you mind telling me the reported IC50 of each entry?
molecular target: Tyrosine-protein kinase BTK (Homo sapiens); assay: Covalent inhibition of N-terminal GST-fused human BTK (2-659(end) amino acids) expressed in baculovirus expression system using FITC-AHA-EEPLYWSFPAKKK-NH2 as substrate incubated for 90 mins by microfluidic off-Chip Mobility Shift Assay
Numbers only, in nM.

molecule: C=CC(=O)N1CCC(CNc2ncnc(N)c2-c2ccc(C(=O)Nc3ccccc3)cc2)CC1
reportedProperty: IC50
unitSpec: nM
dataValue: 1200
--
molecule: Nc1ncnc(NCC2CCN(C(=O)C3=CCC3)CC2)c1-c1ccc(Oc2ccccc2)cc1
reportedProperty: IC50
unitSpec: nM
dataValue: 290
--
molecule: C=CC(=O)Nc1cccc(Nc2ncnc(N)c2-c2ccc(Oc3ccccc3)cc2)c1
reportedProperty: IC50
unitSpec: nM
dataValue: 4
--
molecule: C=CC(=O)Nc1cccc(Oc2ccnc(N)c2-c2ccc(Oc3ccccc3)cc2)c1
reportedProperty: IC50
unitSpec: nM
dataValue: 5
--
molecule: C=CC(=O)N1CCC(CNc2ncnc(N)c2-c2ccc(Oc3ccc(F)cc3)cc2)CC1
reportedProperty: IC50
unitSpec: nM
dataValue: 150

For each of the items listed, what is its IC50?
1. C=CC(=O)Nc1cccc(-c2c(N)ncnc2Nc2ccc(Oc3ccccc3)cc2)c1
2. C=CC(=O)N1CCC(CNc2ncnc(N)c2-c2cc(F)c(Oc3ccccc3)cc2F)CC1
3. C=CC(=O)NC1CCCN(c2ncnc(N)c2-c2ccc(Oc3ccccc3)cc2)C1 (stereo unspecified)
4. C=CC(=O)N1CCC(CNc2ncnc(N)c2-c2ccc(Oc3ccc(C)cc3)cc2)CC1
5. C#CC(=O)N1CCC(CNc2ncnc(N)c2-c2ccc(Oc3ccccc3)cc2)CC1

Response line:
1. 8
2. 160
3. 1500
4. 18
5. 0.2

* * *

test: Tmax in Wistar rat at 10 mg/kg, po administered as suspension; format: ADME, organism-based; conditions: in vivo
reportedProperty: Tmax

Prompt line: Which Tmax reading was recorded for the compound C=CC(=O)N1CCC(CNc2ncnc(N)c2-c2ccc(Oc3ccccc3)cc2)CC1 ?
Response line: 15 to 60 min
